- Test system: P. falciparum Dd2 (PfLuc) line expressing firefly luciferase, asexual blood stage
- Assay notes: microbe, parasite or virus in culture
- Format: cell-based, Plasmodium falciparum
- Test context: Plasmodium falciparum, DD2, read-out: CDD P. falciparum Luciferase ABS 11-pt Reconfirmation Dose Response (48hr): IC50 (μM); 11-pt dose response, 48hr
# label = Criterion met if IC50 < 3 µM else Criterion not met

Compound: CC1(C)CC(N(Cc2cccnc2)Cc2cccc(F)c2)CC(C)(C)N1 [DDD01060979]
Class label: Criterion not met

Compound: CC(O)c1cccc(Nc2nc(NCCO)c3ccccc3n2)c1 (stereo not drawn) [DDD01037968]
Class label: Criterion met

Compound: Cc1ccc(C2(CN(C)Cc3sccc3C)CCNCC2)nc1 [DDD01252463]
Class label: Criterion not met

Compound: Cc1ccccc1N1CCCN(CC2(O)CCCNC2)CC1 (stereo not drawn) [DDD01254676]
Class label: Criterion not met

Compound: CCN1CCC2(CC1)CC(NCc1ccncc1)c1ccccc1O2 (stereo not drawn) [DDD01034171]
Class label: Criterion not met

Compound: Fc1cccc(CN2CCC(c3cc4ncccc4cn3)CC2)c1F [DDD01058754]
Class label: Criterion met

Compound: Cc1cccc(C)c1Nc1noc2c1CN(C(=O)c1ccnn1C)CC2 [DDD01056796]
Class label: Criterion met

Compound: Cc1cccc(OC(C)C(=O)NCC2(N(C)C)CCCC2)c1 (stereo not drawn) [DDD01069466]
Class label: Criterion not met

Compound: Clc1ccccc1C1(c2ccnc(C3CC3)n2)CCNCC1 [DDD01246037]
Class label: Criterion not met

Compound: Oc1cccc2ccc(CN3CCC4(CCNCC4)C3)nc12 [DDD01243747]
Class label: Criterion met

Compound: NCC1Cc2cc(-c3nccc(N4CCC(O)CC4)n3)cc(Cl)c2O1 (stereo not drawn) [DDD01245918]
Class label: Criterion met

Compound: O=C(CN1CCCC(c2ccn[nH]2)C1)Nc1nc2c(s1)CCC2 (stereo not drawn) [DDD01079497]
Class label: Criterion met

Compound: NC(=O)CN1CCC(Nc2ccnc3ccc(Cl)cc23)CC1 [DDD01078433]
Class label: Criterion met

Compound: COc1ccccc1C1(CNCc2cccc(O)c2)CCOCC1 [DDD01075721]
Class label: Criterion not met

Compound: COc1cc(CNCC(O)c2cccc(F)c2)cc2c1OCO2 (stereo not drawn) [DDD01296688]
Class label: Criterion not met

Compound: CC(C)CNc1cc(-c2c[nH]nc2C2CCN(C(=O)C3CC3)C2)ccn1 (stereo not drawn) [DDD01057306]
Class label: Criterion not met

Compound: Cc1cc(F)ccc1N1CCC(N2C[C@@H](CN(C)C)[C@@H](CO)C2)CC1 [DDD01253692]
Class label: Criterion not met

Compound: Fc1cccc(C(NCc2ncc[nH]2)c2ccccn2)c1 (stereo not drawn) [DDD01064153, FC1=CC=CC(=C1)C(NCC1=NC=CN1)C1=CC=CC=N1]
Class label: Criterion not met

Compound: CN(Cc1cc(Cl)cc2cccnc12)CC1CCN(CCO)CC1 [DDD01063807]
Class label: Criterion met

Compound: NC1CCc2nc(-c3cccnc3)nc(Nc3ccc(F)cc3)c2C1 (stereo not drawn) [DDD01057099]
Class label: Criterion not met

Compound: Cc1nn(C)cc1C1=NS(=O)(=O)N(C)C(C(=O)Nc2ccc(Br)cc2)=C1 [DDD01058697]
Class label: Criterion met

###

- System: P. falciparum Dd2
- Assay notes: SYBR green I asexual blood stage proliferation assay (96 h)
- Assay type: cell-based, Plasmodium falciparum
- Test context: Plasmodium falciparum, DD2; Sybr Green I, 11-pt dose response, 96hr; read-out: CDD P. falciparum Sybr Green I ABS 11-pt Reconfirmation Dose Response (96hr): Maximum inhibition (%)

Compound: COc1cccc(CNCc2cccc(Cl)c2)c1O
Tested target: P. falciparum Dd2
Emax / %: 92.1

Compound: CC(NCC1CCN(CCO)CC1)c1ccc(F)c(Cl)c1 (stereo not drawn)
Tested target: P. falciparum Dd2
Emax / %: 91.9

Compound: COc1cccc(CNCc2ccc(F)c(Cl)c2)c1O
Tested target: P. falciparum Dd2
Emax / %: 98.2

Compound: CC(C)Nc1cc(-c2c[nH]nc2C2CCN(C(=O)C3CCC3)C2)ccn1 (stereo not drawn)
Tested target: P. falciparum Dd2
Emax / %: 72

Compound: COc1cccc(CNC(CN2CCN(C)CC2)c2ccccc2)c1 (stereo not drawn)
Tested target: P. falciparum Dd2
Emax / %: 94.5

Compound: CC(C)N(C)Cc1cnc2n1CCN(C(=O)NC1CCCC1)C2
Tested target: P. falciparum Dd2
Emax / %: 52.8

Compound: COc1ccc(-c2c(C)nn3c(=N)c(C#N)n[nH]c23)cc1OC
Tested target: P. falciparum Dd2
Emax / %: 90.8

Compound: Cc1cc2nc(-c3cn(C4CCNCC4)nn3)[nH]c2cc1C
Tested target: P. falciparum Dd2
Emax / %: 82

Compound: Clc1cccc(C(NCc2ncc[nH]2)c2ccccn2)c1 (stereo not drawn)
Tested target: P. falciparum Dd2
Emax / %: 88.1

###

- Test system: P. falciparum Dd2 (PfLuc) line expressing firefly luciferase, asexual blood stage
- Assay notes: microbe, parasite or virus in culture
- Type: cell-based, Plasmodium falciparum
- Test context: Plasmodium falciparum, DD2; 11-pt dose response, 96hr; read-out: CDD P. falciparum Luciferase ABS 11-pt Reconfirmation Dose Response (96hr): Maximum inhibition (%)

Compound: CN[C@@H](C)C(=O)N(Cc1cccc(C)c1)Cc1ccccc1OC [DDD01246872]
Emax, %: 89.6

Compound: CN(C)c1nc2c(c(NCc3cc(O)ncn3)n1)CCCC2 [DDD01252975]
Emax, %: 99.7

Compound: CC(O)c1cccc(Nc2nc(NCCO)c3ccccc3n2)c1 (stereo not drawn) [DDD01037968]
Emax, %: 99.6

###

- System: P. falciparum Dd2 (PfLuc) line expressing firefly luciferase, asexual blood stage
- Assay notes: microbe, parasite or virus in culture
- Assay type: cell-based, Plasmodium falciparum
- Test context: Plasmodium falciparum, DD2; 11-pt dose response, 96hr; read-out: P. falciparum Luciferase ABS 11-pt Reconfirmation Dose Response (96hr): Maximum inhibition (%)
Let's look at some compounds and their measured Emax.

Compound: COc1ccc(CN2CCNC(=O)CC2)cc1SC(F)(F)F
Emax / %: 70.4
//
Compound: c1cnn(C[C@@H]2C[C@@H]3CN(CC4CC4)CC[C@@H]3N2c2nccs2)c1
Emax / %: 99.5
//
Compound: Cc1cn2c(n1)C(CNCC1=Cc3ccccc3OC1)CCC2 (stereo not shown)
Emax / %: 99.3
//
Compound: OCc1csc(N2CCCC(COc3cccc(F)c3)C2)n1 (stereo not shown)
Emax / %: 82.9
//
Compound: COc1cc(C(=O)NCC2(N(C)C)CCN(C)CC2)c2ccccc2n1
Emax / %: 87.3
//
Compound: CC(N)Cc1ccccc1Sc1ccccc1 (stereo not shown)
Emax / %: 98.2
//
Compound: c1ccc(CN2CCCC3(CCN(Cc4cccs4)C3)C2)nc1 (stereo not shown)
Emax / %: 86.9
